From: ChEMBL document CHEMBL3112493

experiment: Acute toxicity in ip dosed Swiss mouse assessed as appearance of tonic-clonic convulsion followed by respiratory block measured after 15 to 20 mins
Type: organism-based
measurement parameters: in vivo
The threshold is 100 mg/kg. Values of LD50 beneath it are tagged YES; values meeting or exceeding it are tagged NO.

>>> print(df.to_string())
                            smi  label_class
 0          COc1cccc(OC)c1CN.Cl           NO
 1      Cl.NCc1c(OCCO)cccc1OCCO           NO
 2      CCCCc1cccc(CCCC)c1CN.Cl          YES
 3        CCOc1cccc(OCC)c1CN.Cl          YES
 4        COCc1cccc(COC)c1CN.Cl           NO
 5    CCCCOc1cccc(OCCCC)c1CN.Cl          YES
 6    Cl.NCc1c(OCCCO)cccc1OCCCO           NO
 7          CCc1cccc(CC)c1CN.Cl          YES
 8        CCCc1cccc(CCC)c1CN.Cl          YES
 9  Cl.NCc1c(OCCCCO)cccc1OCCCCO           NO
10      CCCOc1cccc(OCCC)c1CN.Cl          YES
